# Procedure details: yeast display, Sf9 membrane polyspecificity reagent, FACS + sequencing; frameworks hold sequencing errors
Attribute measured: polyreactivity (PSR sort gate)

>  <Residue codes>
QVQLVESGGGLVQAGGSLRLSCAASGSTLPTNAMLWYRQAPGKEREFVAAISDNGGSTYYADSVKGRFTISRDNAKNTVYLQMNSLKPEDTAVYYCAADNFGPEFYYWGQGTQVTVSS

>  <Result>
low polyreactivity

$$$$
>  <Residue codes>
QVQLVESAGGLVQAGGSLRLSCAASGYIYGYYVMGWNRQAPGKERELVAAISGRGGRTYYADSVKGRFTISRDNAKNTVYLQMNSLKPEDTAVYYCAAADLPGTMYYWGQGTQVTVSS

>  <Result>
high polyreactivity

$$$$
>  <Residue codes>
QVQLVESGGGLVQAGGSLRLSCAASGSTFTTYAMGWYRQAPGKERELVAAITSGGTTNYADSVKGRFTISRDNAKNTVYLQMNSLKPEDTAVYYCAARNNVEYLTIYKPYSFGSDSWGQGTQVTVSS

>  <Result>
low polyreactivity

$$$$
>  <Residue codes>
QVQLVESGGGLVQARGSLRLSCAASGSIFDGNAMGWYRQAPGKERELVAAITWRGTRTYYADSVKGRFTISRDNAKNTVYLQMNSLKPEDTAVYYCNKKWYPYLEHDYWGQGTQGTVSS

>  <Result>
high polyreactivity

$$$$
>  <Residue codes>
QVQLVESGGGLVQAGGSLRLSCAASGRIFVVNAMGWYRQAPGKERELVAAITRRGGSTYADSVKGRFTISRDNAKNTVYLQMNSLKPEDTAVYYCNAESYYGIFRYKYDYWGQGTQVTVSS

>  <Result>
high polyreactivity

$$$$

---

# Procedure details: yeast display, Sf9 membrane polyspecificity reagent, FACS + sequencing; frameworks hold sequencing errors
Attribute measured: polyreactivity (PSR sort gate)

>  <Residue codes>
QVQLVESGGGLVQAGGSLRLSCAASGSTFAFYAMGWYRQAPGKERELVAAISRSGGRTYYADSVKGRFTISRDNAKNTVYLQMNSLKPEDTAVYYCAAVFRSGYLRYYYWGQGTQVTVSS

>  <Attribute measured>
polyreactivity (PSR sort gate)

>  <Result>
high polyreactivity

$$$$
>  <Residue codes>
QVQLVESGGGLVQAGGSLRLSCAASGRIYGFNTMGWYRQAPGKERELVAAITTSGVSTYYADSVKGRFTISRDNAKNTVYLQMNSLKPEDTAVYYCAARWYRTGPYKRRDYWGQGTQVTVSS

>  <Attribute measured>
polyreactivity (PSR sort gate)

>  <Result>
high polyreactivity

$$$$
>  <Residue codes>
QVQLVESGGGLVQAGGSLRLSCAASGSIWYYAMGWYRQAPWTERELVAAIRRGGSTYYADYVKGRFTISRDNAKNTVYVQMNSMKPEDTAVYYCAASWNYYKLDYWGQGTQVTVSS

>  <Attribute measured>
polyreactivity (PSR sort gate)

>  <Result>
high polyreactivity

$$$$

---

# Procedure details: yeast display, Sf9 membrane polyspecificity reagent, FACS + sequencing; frameworks hold sequencing errors

>  <Residue codes>
QVQLVESVGGLVQAGGSLRLSCAASGFIFWDNAMGWYRQAPGKERELVAAISKSGTRTYYADSVKGRFTISRDNAKNTVYLQMNSLKPEDTAVYSCAAEGSGYEYYYWGQGTQVTVSS

>  <polyreactivity (PSR sort gate)>
high polyreactivity

$$$$
>  <Residue codes>
QVQLVDSGGGLVQAGGSLRLSCASSGIIFGYYAMGWYRPAPGKERELVAGITYRTGSTDYADSVKGRFTISRDNAKNTVYFQMNSLKPEDTAVYFCAATQDKRKYSSCYYYWGQGTQVTVSS

>  <polyreactivity (PSR sort gate)>
high polyreactivity

$$$$
>  <Residue codes>
QVQLVESGGGLVQAGGSLRLSCAASGSIFGSNAMGWYRQAPGKERELVAAITESGGDTYYADSVKGRFTISRDNAKNTVYLQMNSLKPEDTAVYYCAARYFGVIVDVSLFREYGSWGQGTQVTVSS

>  <polyreactivity (PSR sort gate)>
low polyreactivity

$$$$
>  <Residue codes>
QDQLVESGGGLDQAGGSLRLICAASGRIFIYYAMGWYRQAPGKETELVAAISSTGTTNYADSVKGRFTISRDNAKNTVYLQMTSLKPEDTAVYFCAARVRTATRRFTSYSWGQGTQVTVSS

>  <polyreactivity (PSR sort gate)>
high polyreactivity

$$$$
>  <Residue codes>
QVQLVESGGGLVQAGGSLRLSCAASGYTFVNYAMGWYRQAPGKEREFVAAISRSGGSTYYADSVKGRFTISRDNAKNTVYLQMNSLKPEDTAVYYCALRGYPPYNYYYWGQGTQVTVSS

>  <polyreactivity (PSR sort gate)>
high polyreactivity

$$$$
>  <Residue codes>
QVQLVESGGGLVQAGGSLRLICAASGFIFPDYTMGWYRHAPGKERELVAAINVSGGSTYYADSVKGRFTISRDHAKNTVYLQMNSLKPEDTAVYYCAAVGGRFVRRSTMDYWGQGTQVTVSS

>  <polyreactivity (PSR sort gate)>
low polyreactivity

$$$$
>  <Residue codes>
QVQLVESGGGLVQAGGSLRLSCAASGRIFFSNAMGWYRQAQGKEREMVASITGGDDTNYADSVKGRFTISRDNAKNTVYLQMNSLKPEDTAVYYCAARAIPSYRWFYRFAPKYDYWGQGTQVTVSS

>  <polyreactivity (PSR sort gate)>
low polyreactivity

$$$$
>  <Residue codes>
QVQLVESGGGLVQAGGSLRLICAASGFTFGYYAMGWYRQAPGKERELVAAITSRGTRTSYADSVKGRFTISRDNEKNTVYLQMNSLKPEDTAVNYCAARVLRGLGEYYWGQGTQVTVSS

>  <polyreactivity (PSR sort gate)>
high polyreactivity

$$$$
>  <Residue codes>
QVQLVDSGGGLVQAGGSLRLSCAASGITFGYYAMGWYRQAPGKERELVAAISFTGASTYYADSVKGRFTISRDNAKNTVYLQMYSLKPEDTAVYYCAADPYVPYHDFLSGFDYWGQGTQVTVSS

>  <polyreactivity (PSR sort gate)>
low polyreactivity

$$$$
>  <Residue codes>
QVQLVESGGGLVQAGGSLRLSCAASGRTFVYNGMGSYRQAPGKERELVAAISGSGGSTYYADSVKGRFTISRDNAKNTVYLQMNSLKPEDTAVYYCATRQGYRLYYWGQGTQVTVSS

>  <polyreactivity (PSR sort gate)>
high polyreactivity

$$$$
>  <Residue codes>
QVQLVESGGGLVQAGGSLRLSCAASGITLTKNAMGWYRQAPGKERELVAGITRGSRTNYADSVKGRFTISRDNAKNSVYLQMNSLIPEDTAVYYCAASYWPYRGPVGGSKMYFWGQGTQVTVSS

>  <polyreactivity (PSR sort gate)>
high polyreactivity

$$$$
>  <Residue codes>
QVQLVESGGGLVQAGGSLRLSCAASGFTFDNYVMGWYSQAPGKERELVAAISKSGTSTYYADSVKGRFTISRDNAKNTVYLQMNSLKPEDTAVYYCAAALPGYGDYYYWGQGTQVTVSS

>  <polyreactivity (PSR sort gate)>
high polyreactivity

$$$$
>  <Residue codes>
QVQLVESGGGLVQAGGSLRLSCAASGIIFPGKAMGWYRQAPGKERELVAAISSGGNTKYADSVKGRFTISRDNAKNTGYLQMNSLNPEDTAVYYCAAAARARNPSYGRNYWGQGTQVTVSS

>  <polyreactivity (PSR sort gate)>
high polyreactivity

$$$$
>  <Residue codes>
QVQLVESGGGLVQAGGSLRLSCAASGRTFRFYAMGWSRQAPGKEREMVAAISYSGGSTYYADSVKGRFTISRDNAKNTVYLQMNSLKPEDTAVYYCAAPYYRSTTSYDYWGQGTQVTVSS

>  <polyreactivity (PSR sort gate)>
high polyreactivity

$$$$
>  <Residue codes>
QVQLVESGGGLVQAGGSLRLSCAASGRILAYNVMGWYRQAPGKEREFVASIRRTGVRTYYADSVKGRFTISRDNAKNTVYLQMNSLKPEDTAVYYCNAANFNFWDYYYWGQGTQVTVSS

>  <polyreactivity (PSR sort gate)>
low polyreactivity

$$$$
>  <Residue codes>
QVQLVESGGGLVQAGGSLRLSCSASGITFTSYAMGWYRQAPGKERELVASIDSDDSTNYADSVKGRFTISLDNAKNTVYLQMNSLKPEDTAVYYCNADYLTVSWSIPEHVTVRLMYYWGQGTQVTVSS

>  <polyreactivity (PSR sort gate)>
low polyreactivity

$$$$
>  <Residue codes>
QVQLVESGGGLVQARGSLRLSCAASGRIFFRNAKGWYRQAPGKERELVAAITYSGGSTYYADSVKGRFTISRDNAKNTVYLQMNSLKPEDTAVYYCGAGYWFSYSRVTRYDYWGQGTQVTVSS

>  <polyreactivity (PSR sort gate)>
high polyreactivity

$$$$
>  <Residue codes>
QVQLVESGGGLVQAGVSLRLSCAAYGRIFGPYAMGWYRQAPGKERELVATITWRTGSTYYADSVKGRFTISRDNAKNTVYLQMNSLKPEDTAVYYCAARYGRYSKAGDYWGLGTQVTVSS

>  <polyreactivity (PSR sort gate)>
high polyreactivity

$$$$
>  <Residue codes>
QVQLVESGGGLVQAGGSLRISCAASGRIFVSNAAMGWYIQAPGKESELVAAITSRGGRTTYADSVKGRFTSSRDNAKNTVYLQMNSLKPEDTAVYYCAARVRGYDWVRGSPFHHNYWGQGTQVTVSS

>  <polyreactivity (PSR sort gate)>
high polyreactivity

$$$$
>  <Residue codes>
QVQLVESGGGLVQAGGSLRLSCAASGSTFTGYAMGWYRQAPGKERELVAAITRGGSTYYADSVKGRFTISRDNAKNTVFLQMNSLKPEDTAVYYCAAKPTSREPTGPRYYYWGQGTQVTVSS

>  <polyreactivity (PSR sort gate)>
high polyreactivity

$$$$
>  <Residue codes>
QVQLVESGGGLVQAGVSLRLSCAASGSIIWVYAMGWYRQAPGNERELVAAITSGVSTYYADSVKGRFTISRDNAKNTVYFQMNSLKPEETAVYYCAVVGGFRWIRMEYWGQGTQVTVSS

>  <polyreactivity (PSR sort gate)>
low polyreactivity

$$$$
